Where do the numbers come from? From PubChem BioAssay AID2060890.

viability, T/C values for the compounds below.
Tested on: LG0703-F948-PDC complex spheroid viability;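 note: spheroids exposed to agents for 7 days; 100% = DMSO vehicle wells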
procedure-details: Anticancer human tumor LG0703-F948-PDC patient-derived lung adenocarcinoma cell line growth inhibition [RAS]
test-conditions: second compound 0.00949 µM; first compound 10 µM; hits give low values
Please reply with the bare figure in % and do not write the unit itself.

As a guide, the following entries are already answered.
CC(C)NCC(C(=O)N1CCN(c2ncnc3c2C(C)CC3O)CC1)c1ccc(Cl)cc1 (stereo not given) + CCn1c(-c2cc(N3CCN(C)CC3)cnc2C(C)OC)c2c3cc(ccc31)-c1csc(n1)CC(NC(=O)C1CC1C)C(=O)N1CCCC(N1)C(=O)OCC(C)(C)C2 :: 3.27
CC1(O)CCCC1n1c(=O)c(C(F)F)cc2cnc(NC3CCN(S(C)(=O)=O)CC3)nc21 (stereo not given) + CCn1c(-c2cccnc2C(C)OC)c2c3cc(ccc31)N1CCOC(CC(NC(=O)C(C(C)C)N(C)C(=O)C3(F)CCN(C(=O)C#CC(C)(C)N(C)C)CC3)C(=O)N3CCCC(N3)C(=O)OCC(C)(C)C2)C1 :: 47.9
Cc1nc(N2CCC3(CC2)COC(C)C3N)c(CO)nc1Sc1ccnc(N)c1Cl (stereo not given) + CCn1c(-c2cccnc2C(C)OC)c2c3cc(ccc31)N1CCOC(CC(NC(=O)C(C(C)C)N(C)C(=O)C3(F)CCN(C(=O)C#CC(C)(C)N(C)C)CC3)C(=O)N3CCCC(N3)C(=O)OCC(C)(C)C2)C1 :: 13.6
CC(C)NCC(C(=O)N1CCN(c2ncnc3c2C(C)CC3O)CC1)c1ccc(Cl)cc1 (stereo not given) + CCn1c(-c2cccnc2C(C)OC)c2c3cc(ccc31)N1CCOC(CC(NC(=O)C(C(C)C)N(C)C(=O)C3(F)CCN(C(=O)C#CC(C)(C)N(C)C)CC3)C(=O)N3CCCC(N3)C(=O)OCC(C)(C)C2)C1 :: 39.3

Proceed to the following item.
Kindly indicate its recorded viability, T/C. Item: NC1c2ccccc2OC12CCN(c1cnc3c(N4CCCc5ncccc54)n[nH]c3n1)CC2 (stereo not given) + CCn1c(-c2cc(N3CCN(C)CC3)cnc2C(C)OC)c2c3cc(ccc31)-c1csc(n1)CC(NC(=O)C1CC1C)C(=O)N1CCCC(N1)C(=O)OCC(C)(C)C2 2.25
